meta.source: patent US12037324B2

molecular target: AGTR1 (Homo sapiens, UniProt P30556); construct: host or cells: Pathunter CHO-K1 AGTR1 β-arrestin cell line (CHO-K1); test: DiscoveRx β-arrestin2 recruitment assay (enzyme complementation, Pathunter CHO-K1 AGTR1 β-arrestin cell line); assay type: cell-based; conditions: DiscoveRx β-arrestin2 recruitment, maximal response
measured endpoint: DiscoveRx β-arrestin2 Ymax (%)
Expressed in %, but write only the number.

- compound: "CCc1nc2c(C)cc(C)nc2n1Cc1ccc(-c2cc(Oc3cccnc3F)ccc2-c2nn[nH]n2)cc1 [Example 262]"
  measured target: "AGTR1 (Homo sapiens, UniProt P30556)"
  DiscoveRx β-arrestin2 Ymax (%): 50.8

Please turn your attention to the following entry.
Inquiry: Give the reported value of DiscoveRx β-arrestin2 Ymax (%) for this record: CCc1nc2c(C)cc(C)nc2n1Cc1cnc(-c2cc(-c3cccc(C)c3)ccc2C(=O)O)cn1 [Example 199]
Reply text: 34.2

----------
Target: AGTR1 (Homo sapiens, UniProt P30556)
Construct: host or cells: Pathunter CHO-K1 AGTR1 β-arrestin cell line (CHO-K1)
Sequence (P30556 1-359): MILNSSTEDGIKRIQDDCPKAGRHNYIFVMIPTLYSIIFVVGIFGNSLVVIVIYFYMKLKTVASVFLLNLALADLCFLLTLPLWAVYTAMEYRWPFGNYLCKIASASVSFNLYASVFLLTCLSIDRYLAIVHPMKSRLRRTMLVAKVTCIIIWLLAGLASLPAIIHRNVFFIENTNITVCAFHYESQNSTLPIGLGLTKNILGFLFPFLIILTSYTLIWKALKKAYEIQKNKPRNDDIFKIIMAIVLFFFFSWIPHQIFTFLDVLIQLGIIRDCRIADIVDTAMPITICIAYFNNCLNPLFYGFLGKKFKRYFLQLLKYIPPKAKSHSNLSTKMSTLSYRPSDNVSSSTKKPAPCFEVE
Assay: DiscoveRx IP1 accumulation assay (HTRF), agonist mode, Pathunter CHO-K1 AGTR1 β-arrestin cell line
Type: cell-based
Settings: read-out: IP-1 EC50
pEC50: −log10 of the molar value.
Measured pEC50 of individual entries

Solved entries (count: 3):
- molecule: "CCc1nc2c(C)cc(C)nc2n1Cc1ccc(-c2cc(C3=CCCCC3)ccc2-c2nn[nH]n2)cc1 [Example 70]"
  measured target: "AGTR1 (Homo sapiens, UniProt P30556)"
  result: "< 4.30"
- molecule: "CCCC1=NC2(CCCC2)C(=O)N1Cc1ccc(-c2cc(N3CCC[C@@H](C)C3)ccc2-c2nn[nH]n2)cc1 [Example 117]"
  measured target: "AGTR1 (Homo sapiens, UniProt P30556)"
  result: "< 4.00"
- molecule: "CCc1nc2c(C)cc(C)nc2n1Cc1ccc(-c2cc(N3CCCCC3)ccc2-c2nn[nH]n2)cc1 [Example 91]"
  measured target: "AGTR1 (Homo sapiens, UniProt P30556)"
  result: "< 4.00"

Inquiry: Please report the measured pEC50 for CCCCC1=NC2(CCCC2)C(=O)N1Cc1ccc(-c2cc(-c3cccnc3)ccc2-c2nn[nH]n2)cc1 [Example 125] tested on AGTR1 (Homo sapiens, UniProt P30556).
Reply text: < 4.00

Inquiry: Give reported pEC50 for CCCCC1=NC2(CCCC2)C(=O)N1Cc1ccc(-c2cc(N3CCC(C)(C)CC3)ccc2-c2nn[nH]n2)cc1 [Example 101] (AGTR1 (Homo sapiens, UniProt P30556))
Reply text: < 4.00

Inquiry: Provide pEC50, recorded with AGTR1 (Homo sapiens, UniProt P30556), of CCc1nc2c(C)cc(C)nc2n1Cc1ccc(-c2cc(Oc3ccccn3)ccc2-c2nnn[nH]2)cc1 [Example 247]
Reply text: < 4.00

----------
pEC50 values by entry
molecular target: AGTR1 (Homo sapiens, UniProt P30556); construct: host or cells: Pathunter CHO-K1 AGTR1 β-arrestin cell line (CHO-K1); assay: DiscoveRx IP1 accumulation assay (HTRF), agonist mode, Pathunter CHO-K1 AGTR1 β-arrestin cell line; type: cell-based; conditions: read-out: IP-1 EC50
pEC50: −log10 of the molar value.

- smiles record: "CCc1nc2c(C)cc(C)nc2n1Cc1ccc(-c2cc(N3CCC[C@@H](C)C3)ccc2-c2nn[nH]n2)cc1"
  pEC50: "< 4.00"

Inquiry: Determine its reported pEC50: CCCCC1=NC2(CCCC2)C(=O)N1Cc1ccc(-c2cc(Nc3ccccc3)ccc2-c2nn[nH]n2)cc1
Reply text: < 4.00

Inquiry: Tell me measured pEC50 for CCc1nc2c(C)cc(C)nc2n1Cc1ccc(-c2cc(-c3ccccc3)ccc2OCC(=O)O)cc1 please.
Reply text: < 4.00

Inquiry: Specify pEC50 for CCCCC1=NC2(CCOCC2)C(=O)N1Cc1ccc(-c2cc(-c3cccc(C)c3)ccc2-c2nn[nH]n2)cc1 and stop.
Reply text: < 4.00

----------
biological target: hAT1R (Homo sapiens, UniProt P30556); assay: BRET β-arrestin2 biosensor assay, higher receptor expression (hAT1R 5 ng/well), HEK293 cells; type: cell-based; details: High AT1R Expression
measured endpoint: EC50 (nM)
All answers are understood in nM, so give the number only.

Inquiry: GET EC50 | system: hAT1R (Homo sapiens, UniProt P30556) | item: CCCCC(=O)N(Cc1ccc(-c2cc(-c3ccccn3)ccc2-c2nn[nH]n2)cc1)C1(C(=O)O)CCCCC1
Reply text: 136

Inquiry: State measured EC50 of the molecule CCCCC1=NC2(CCCC2)C(=O)N1Cc1ccc(-c2cc(N3CCC(C)CC3)ccc2-c2nn[nH]n2)cc1 with hAT1R (Homo sapiens, UniProt P30556).
Reply text: 155

Inquiry: Please tell me the measured EC50 for CCc1nc2c(C)cc(C)nc2n1Cc1ccc(-c2cc(-n3cc(C4CCCC4)nn3)ccc2-c2nnn[nH]2)cc1 ; system: hAT1R (Homo sapiens, UniProt P30556).
Reply text: 61.2

Inquiry: Provide EC50, recorded with hAT1R (Homo sapiens, UniProt P30556), of CCc1nc2c(C)cc(C)nc2n1Cc1ccc(-c2cc(Oc3ccccc3)ccc2C(=O)O)cc1
Reply text: 92.9

----------
Each record here notes measured EC50.
molecular target: AGTR1 (Homo sapiens); construct: host or cells: Pathunter CHO-K1 AGTR1 β-arrestin cell line (CHO-K1); assay: DiscoveRx IP1 accumulation assay (HTRF), agonist mode, Pathunter CHO-K1 AGTR1 β-arrestin cell line; assay type: cell-based; details: read-out: IP-1 EC50

- smiles record: "CCc1nc2c(C)cc(C)nc2n1Cc1ccc(-c2cc(-c3ccc4ncccc4c3)ccc2-c2nn[nH]n2)cc1"
  EC50: "> 1 µM"
- smiles record: "CCCCC1=NC2(CCCC2)C(=O)N1Cc1ccc(-c2cc(-c3cscn3)ccc2-c2nn[nH]n2)cc1"
  EC50: "> 100 µM"
- smiles record: "CCc1nc2c(C)cc(C)nc2n1Cc1ccc(-c2cc(N3CC[C@H](C)C3)ccc2-c2nn[nH]n2)cc1"
  EC50: "> 100 µM"
- smiles record: "CCCCC1=NC2(CCCC2)C(=O)N1Cc1ccc(-c2cc(-c3ccc(C(=O)N(C)C)cc3)ccc2-c2nn[nH]n2)cc1"
  EC50: "> 100 µM"

Inquiry: State, for AGTR1 (Homo sapiens), measured EC50 of the compound listed here: CCCCC1=NC2(CCCC2)C(=O)N1Cc1ccc(-c2cc(N3CC(C)(C)c4ccccc43)ccc2-c2nn[nH]n2)cc1
Reply text: > 100 µM

Inquiry: Please report the measured EC50 for CCCCC1=NC2(CCCC2)C(=O)N1Cc1ccc(-c2cc(-c3ccc(CO)cc3)ccc2-c2nn[nH]n2)cc1 tested on AGTR1 (Homo sapiens).
Reply text: > 100 µM

----------
Each entry below carries its reported EC50.
Target: hAT1R (Homo sapiens)
Sequence (P30556 1-359): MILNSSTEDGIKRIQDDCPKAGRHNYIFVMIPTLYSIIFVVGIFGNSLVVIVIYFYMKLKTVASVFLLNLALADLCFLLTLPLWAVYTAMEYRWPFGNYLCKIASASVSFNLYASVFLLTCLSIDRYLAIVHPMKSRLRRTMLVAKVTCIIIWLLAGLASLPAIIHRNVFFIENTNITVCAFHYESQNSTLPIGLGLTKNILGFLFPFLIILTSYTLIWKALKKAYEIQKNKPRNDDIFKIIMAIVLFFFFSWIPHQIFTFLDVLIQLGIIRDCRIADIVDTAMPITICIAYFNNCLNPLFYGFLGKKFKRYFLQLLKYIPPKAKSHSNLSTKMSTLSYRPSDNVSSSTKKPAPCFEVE
Assay: BRET Gq biosensor assay, agonist response, HEK293 cells
Type: cell-based
Settings: section of the 42nd table directly before the BRET P63 section
// return numeric value only (unit: nM, not printed)

Answered examples (6):
- smiles record: "CCOc1nc2cccc(C(=O)O)c2n1Cc1ccc(-c2cc(-c3ccccn3)ccc2-c2noc(=O)[nH]2)cc1"
  unit string: "nM"
  EC50: 109
- smiles record: "CCCCc1ncc(C(=O)Nc2ccc(C)nn2)n1Cc1ccc(-c2cc(-c3ccccc3)ccc2-c2nn[nH]n2)cc1"
  unit string: "nM"
  EC50: 123
- smiles record: "CCOc1nc2cccc(C(=O)O)c2n1Cc1ccc(-c2cc(N3CC(C)(C)c4ccccc43)ccc2C(=O)O)cc1"
  unit string: "nM"
  EC50: 787
- smiles record: "CCCC(=O)N(Cc1ccc(-c2cc(-c3ccccc3)ccc2-c2nn[nH]n2)nc1)[C@H](C(=O)O)C(C)C"
  unit string: "nM"
  EC50: 286
- smiles record: "CCOc1nc2cccc(C(=O)O)c2n1Cc1ccc(-c2cc(-c3ccc(OC)cn3)ccc2-c2noc(=O)[nH]2)cc1"
  unit string: "nM"
  EC50: 27.3
- smiles record: "CCCCc1nc(Cl)c(C(=O)O)n1Cc1ccc(-c2cc(N3CCC[C@@H](C)C3)ccc2-c2nn[nH]n2)cc1"
  unit string: "nM"
  EC50: 228

Inquiry: Give the measured EC50 for CCCCC(=O)N(Cc1ccc(-c2cc(Oc3ccccc3)ccc2-c2nn[nH]n2)cc1)C1(C(=O)O)CCCCC1
Reply text: 1540

Inquiry: Consider the molecule CCOc1nc2cccc(C(=O)O)c2n1Cc1ccc(-c2cc(N3CCC[C@H](C)C3)ccc2-c2nn[nH]n2)cc1 and give its recorded EC50.
Reply text: 42.3

Inquiry: Respond only with EC50 recorded for CCCCc1ncc(C(=O)NC(C)(C)C)n1Cc1ccc(-c2cc(-c3ccccc3)ccc2-c2nn[nH]n2)cc1
Reply text: 1180

Inquiry: Provide EC50 value for the following molecule: CCCCc1ncc(-c2nnc(C)o2)n1Cc1ccc(-c2cc(-c3ccccc3)ccc2-c2nn[nH]n2)cc1
Reply text: 351
